Test system: Wolbachia pipientis
assay procedure: Anti-Wolbachia Cell-Based Screen
Format: functional
Design: scale not given: in the data most compounds retested in dose-response had high values
recorded conditions: 5 µM
In all, about 48,000 compounds went through this assay and about 13,000 (27%) showed an effect of 50% or more. The list shows a part of the results.
Overview of recorded Percent Effect for various compounds

Illustrative cases are given below, each with its answer.
• CCOCC(=O)N1CCc2c(CN(C)C)nn(C(C)C)c2C1.O=C(O)C(F)(F)F = -22.21%
• CNc1cc(C2CCCN2C(=O)c2ccc3oc(=O)n(C)c3c2)ccn1 (centres undefined) = -0.2257%
• CC(=O)NCC(Cc1cccc(F)c1)n1cccc1 (centres undefined) = 7.369%
• Cc1nn(C)c(C)c1C1COCCN1C(=O)c1cnc(N)c(Cl)c1 (centres undefined) = 1.304%

Data request: Recorded Percent Effect of CC(C)(C(=O)NCCS(N)(=O)=O)c1cccc(Br)c1 , please.
Data returned: -14.63%

Data request: I would be grateful if you could share the reported Percent Effect for O=S(=O)(NC1CCC2(CC1)OCCO2)c1cccc(Br)c1 .
Data returned: -35.45%

Data request: # get_value(readout='Percent Effect', item= CCN(CC)C(=O)N1CCOCC1c1c(C)nn(C)c1C (centres undefined) )
Data returned: 7.192%

Data request: Could you share which Percent Effect value was measured for Cc1nn(C)c(C)c1C1COCCN1C(=O)Cc1cccc(F)c1 (centres undefined) ?
Data returned: -20.34%

Data request: Look up Percent Effect for this compound: COCc1cccc(NC(=O)N(C)Cc2ncc(C)c(OC)c2C)c1
Data returned: -2.673%

Data request: Sample CC(NC(=O)c1cccnc1N(C)C)c1ccccc1Cl (centres undefined) — what was its Percent Effect?
Data returned: 5.567%

Data request: What does the record list as Percent Effect for Cc1cc(CNc2ccc(C(=O)N3CCc4ccccc43)cn2)on1 ?
Data returned: 23.63%

Data request: Need Percent Effect, item CCOCC(=O)NC(C#N)c1cnn(-c2ccccc2)c1 (centres undefined)
Data returned: 0.4784%

Data request: So what's the measured Percent Effect for this one? Cc1ccc(S(=O)(=O)NC[C@H]2OC[C@@H](NCc3cccnc3)[C@@H]2O)cc1
Data returned: -9.264%

Data request: Given the entry CN1CCOC(C(=O)Nc2ccc3c(c2)nc(C2CC2)n3C)C1 (centres undefined) , report its measured Percent Effect.
Data returned: -8.812%

Data request: Query: Percent Effect; subject: O=C(NCCn1cnc(C2CCCC2)cc1=O)c1ccc(=O)[nH]n1
Data returned: -1.303%

Data request: Return reported Percent Effect; argument: Cc1nn(C)c(C)c1C1COCCN1C(=O)CSC(C)(C)C (centres undefined)
Data returned: -11.83%

Data request: Which Percent Effect is listed for CCOc1ncccc1C(=O)N1CC=C(c2ccc(O)cc2)CC1 ?
Data returned: 32.78%

Data request: Please report the recorded Percent Effect for CNc1cc(C2CCCN(C(=O)c3ccc(=O)[nH]n3)C2)ccn1 (centres undefined) .
Data returned: 169.1%

Data request: Item under review: CC(C)N1Cc2cccc(NCC(=O)N(C)C)c2C1 . Reported Percent Effect?
Data returned: -13.34%

* * *

System: Wolbachia pipientis
assay procedure: Anti-Wolbachia Cell-Based Screen
Assay type: functional
Set-up: scale not given: in the data most compounds retested in dose-response had high values
recorded conditions: 5 µM
Screen size: about 48,000 compounds; about 13,000 (27%) showed an effect of 50% or more. The list shows a part of the results.
Below, each entry is listed with its recorded Percent Effect.
Respond with the bare value in %.

Examples with answers:
- Cc1noc(C)c1CN1CCn2cc(CN3CCCC3)nc2C1.O=C(O)C(F)(F)F.O=C(O)C(F)(F)F: 117.4
- Cc1noc(C)c1CN1CCn2cc(CNC(=O)C3CCC3)nc2C1.O=C(O)C(F)(F)F: -7.774
- Cc1noc(C)c1CN1CCn2c(COC(C)C)nnc2C1: -15.51
- Cc1noc(C)c1CN1CCn2cc(CN3CCCCC3)nc2C1.O=C(O)C(F)(F)F: 100
- O=C(O)C(F)(F)F.O=C(O)C(F)(F)F.c1ccc(NCc2cn3c(n2)CN(Cc2cccs2)CC3)nc1: 4.417

Data request: // Percent Effect lookup, key: Cc1noc(C)c1CN1CCn2cc(CN3CCOCC3)nc2C1
Data returned: 95.37

Data request: Fill blank: measured Percent Effect of the compound Cc1noc(C)c1CN1CCn2cc(CNc3ccccn3)nc2C1.O=C(O)C(F)(F)F.O=C(O)C(F)(F)F is ____.
Data returned: 109

Data request: Form field: reported Percent Effect of O=C(O)C(F)(F)F.O=S(=O)(C1CC1)N1CCn2cc(CNc3ccccn3)nc2C1
Data returned: -1.604

Data request: Recorded Percent Effect for Cc1noc(C)c1CN(Cc1ccccc1)C(C)CN1CCOCC1 (stereo not given) , please?
Data returned: -1.266

Data request: Fill blank: measured Percent Effect of the compound CC(CO)CNC(=O)c1cc2cccc(F)c2o1 (stereo not given) is ____.
Data returned: -10.54

Data request: Item Cc1ccc(N2CC[C@H]3OCC[C@@]3(C(=O)NC(C)C)C2)nn1.O=C(O)C(F)(F)F has what recorded Percent Effect?
Data returned: -2.332

Data request: Which Percent Effect value belongs to Cc1nn(C)c(C)c1CCNC(C)c1ccc(-n2ccnc2C)cc1 (stereo not given) ?
Data returned: -1.532
